// reported Median:FITC-A for each item listed
# target.system: T1, Foxp3-7 peptide/HLA-A*02:01 complex on the cell surface (human)
# T1 construct: also called Foxp3-7/HLA-A2 complex
# test.name: flow cytometry, phage on T2 + Foxp3-7 peptide; secondary only 116, unstained 93.8
observable: Median:FITC-A

binder | assay.result
EXT017-27 scFv phage clone (scFv, full-length scFv with His+HA tags; also called EXT017-27 phage; phage clone #27) scFv: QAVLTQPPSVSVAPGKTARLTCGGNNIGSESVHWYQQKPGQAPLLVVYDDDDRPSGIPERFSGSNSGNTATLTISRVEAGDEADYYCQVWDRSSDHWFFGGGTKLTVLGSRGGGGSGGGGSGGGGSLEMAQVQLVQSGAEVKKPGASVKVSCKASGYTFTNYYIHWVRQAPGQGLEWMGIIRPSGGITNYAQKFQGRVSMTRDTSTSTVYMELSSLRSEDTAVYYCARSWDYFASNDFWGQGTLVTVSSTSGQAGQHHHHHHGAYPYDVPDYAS | 658
EXT017-32 scFv phage clone (scFv, also called EXT017-32 phage; phage clone #32) scFv: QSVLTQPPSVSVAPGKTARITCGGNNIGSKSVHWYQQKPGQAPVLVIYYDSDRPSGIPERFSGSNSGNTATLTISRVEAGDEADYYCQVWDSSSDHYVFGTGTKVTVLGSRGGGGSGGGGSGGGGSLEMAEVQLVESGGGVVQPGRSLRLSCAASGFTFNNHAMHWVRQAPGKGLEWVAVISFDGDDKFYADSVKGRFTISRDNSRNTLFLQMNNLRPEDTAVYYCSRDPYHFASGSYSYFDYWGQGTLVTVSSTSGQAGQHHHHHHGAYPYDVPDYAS | 4070
